Values from patent US10450314B2

Biological target: RORγ (Homo sapiens, UniProt P51449)
Sequence (P51449 269-508 limits assumed): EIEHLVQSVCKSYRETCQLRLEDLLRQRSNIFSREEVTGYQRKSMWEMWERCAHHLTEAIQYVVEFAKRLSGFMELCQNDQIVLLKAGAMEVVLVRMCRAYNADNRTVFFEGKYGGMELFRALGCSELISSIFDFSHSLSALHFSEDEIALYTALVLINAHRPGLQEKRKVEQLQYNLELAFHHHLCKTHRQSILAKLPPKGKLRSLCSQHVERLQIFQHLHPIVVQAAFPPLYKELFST
Assay: RORγ Reporter Gene Assay (RGA), luciferase transactivation in transiently transfected HEK 293 cells
Conditions: HEK 293 cells cotransfected with pGL4.3 luc2P/GAL4UAS and pBIND Gal4DBD hRORC LBD; 20-24 h incubation
Procedure: Reporter Gene Assay (RGA) A nuclear receptor transactivation assay is performed to quantitate the ability of test compounds to inhibit RORγ transactivation of a luciferase reporter. A similar assay is described in: Khan et al., Bioorganic & Medicinal Chemistry Letters 23 (2013), 532-536. […] The plates are read on an Envision plate reader to measure luminescence signal. […]
READOUT: IC50 (nM)

// solved cases for IC50 follow
CCS(=N)(=O)c1ccc(CNc2nc3c(C)nc(-c4c(OC)ncnc4C4CC4)nc3n([C@@H](C)C(F)(F)F)c2=O)nc1 (single isomer, unassigned) [Example 101a] | 365
CC[C@@H](C)n1c(=O)c(NCc2ccc(S(=O)(=O)CC)cn2)nc2c(CO)nc(-c3c(OC)ncnc3C3CC3)nc21 | 200
CC[C@@H](C)n1c(=O)c(NCc2ccc(S(=N)(=O)CC)cc2)nc2c(C)nc(-c3c(C)ncnc3C3CC3)nc21 (single isomer, unassigned) [Example 26b] | 170
CCS(=O)(=O)c1cnc(CNc2nc3c(C)nc(-c4c(C)ncnc4C4CC4)nc3n([C@@H](C)C(F)(F)F)c2=O)nc1 | 178

1: COc1ncnc(C2CC2)c1-c1nc(C)c2nc(NCc3ccc(S(N)(=O)=O)cn3)c(=O)n([C@@H](C)C3CC3)c2n1
2: CC[C@@H](C)n1c(=O)c(NCc2ccc(S(N)(=O)=O)cn2)nc2c(C)nc(-c3c(C)ncnc3C3CC3)nc21
3: CCS(=O)(=O)c1cnc(CNc2nc3c(C)nc(-c4c(C)ncnc4C4CC4)nc3n([C@@H](C)C3CC3)c2=O)nc1
Asked: // smallest IC50 at index 0, largest at the end Reply format: the labels, ordered as requested.
Given back: 3, 1, 2
(3: 87 nM, 1: 125 nM, 2: 275 nM)
